Answer each item with its documented IC50.

[in] IC50 of `Cc1cc(CNC(=O)c2nn(-c3cccc(Cl)c3)c3c2CCN(c2ccc4c(c2)C(=O)N(C(C)C)CCO4)C3=O)nn1C` on Human Factor XIIa (hFXIIa) (Homo sapiens, UniProt P00748)?
[out] 100 to 300 nM

[in] Missing value: IC50, Human Factor XIIa (hFXIIa) (Homo sapiens, UniProt P00748), entry `CN1CCc2ccc(N3CCc4c(C(=O)NCc5cccnc5)nn(-c5cccc(Cl)c5)c4C3=O)cc2C1` . Fill in?
[out] 100 to 300 nM

[in] Param readout= IC50; system= Human Factor XIIa (hFXIIa) (Homo sapiens, UniProt P00748); entry= `Cc1n[nH]c(C)c1CNC(=O)c1nn(-c2cccc(Cl)c2)c2c1CCN(c1ccc3c(c1)C(=O)N(C)CC3)C2=O` ; returns value.
[out] 300 to 1000 nM

[in] What is its IC50 for Human Factor XIIa (hFXIIa) (Homo sapiens, UniProt P00748)? Entry: `Cn1cc(Cl)c(CNC(=O)c2nn(-c3cccc(Cl)c3)c3c2CCN(c2ccc4c(c2)CN(CCO)CC4)C3=O)n1`
[out] 10 to 100 nM

[in] Test system Human Factor XIIa (hFXIIa) (Homo sapiens, UniProt P00748); read-out IC50; what value for `CC(C)(O)CN1CCc2ccc(N3CCc4c(C(=O)NCC5CC5)nn(-c5cccc(Cl)c5)c4C3=O)cc2C1` ?
[out] 300 to 1000 nM

[in] Form field - read-out: IC50; system: Human Factor XIIa (hFXIIa) (Homo sapiens, UniProt P00748); submitted item: `O=C(NCc1cc(C2CC2)n[nH]1)c1nn(-c2cccc(Cl)c2)c2c1CCN(c1cccc(CN3CCCCC3)c1)C2=O`
[out] 100 to 300 nM

[in] Please tell me: IC50 of `Cc1cc(CNC(=O)c2nn(-c3cccc(Cl)c3)c3c2CCN(c2ccc4c(c2)C(=O)N(CCCO)CCO4)C3=O)nn1C` , system Human Factor XIIa (hFXIIa) (Homo sapiens, UniProt P00748)?
[out] 10 to 100 nM

[in] So what IC50 did `CN1CCc2ccc(N3CCc4c(C(=O)N[C@H](CO)c5ccccc5)nn(-c5cccc(Cl)c5)c4C3=O)cc2C1=O` get with Human Factor XIIa (hFXIIa) (Homo sapiens, UniProt P00748)?
[out] 100 to 300 nM

[in] What IC50 appears in the records for this compound with Human Factor XIIa (hFXIIa) (Homo sapiens, UniProt P00748)? `CCNC(=O)c1nn(-c2ccc(C)cn2)c2c1CCN(c1ccc3c(c1)C(=O)N(C)CC3)C2=O`
[out] 10000 to 40000 nM

[in] Under Human Factor XIIa (hFXIIa) (Homo sapiens, UniProt P00748): IC50 value of `Cc1cc(CNC(=O)c2nn(-c3cccc(Cl)c3)c3c2CCN(c2ccc4c(c2)C(=O)N(CCO)CCO4)C3=O)nn1C` ?
[out] 10 to 100 nM

====

Biological target: UniProtKB P00748
Sequence (P00748 373-615 limits assumed): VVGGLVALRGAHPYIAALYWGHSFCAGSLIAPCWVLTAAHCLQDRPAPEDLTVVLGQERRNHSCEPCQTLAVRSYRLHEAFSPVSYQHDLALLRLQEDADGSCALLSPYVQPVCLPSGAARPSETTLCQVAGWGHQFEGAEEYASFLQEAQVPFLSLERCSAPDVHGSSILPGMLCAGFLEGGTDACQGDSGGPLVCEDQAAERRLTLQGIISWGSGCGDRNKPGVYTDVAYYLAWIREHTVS
Sequence (P00748 20-372 partner limits assumed): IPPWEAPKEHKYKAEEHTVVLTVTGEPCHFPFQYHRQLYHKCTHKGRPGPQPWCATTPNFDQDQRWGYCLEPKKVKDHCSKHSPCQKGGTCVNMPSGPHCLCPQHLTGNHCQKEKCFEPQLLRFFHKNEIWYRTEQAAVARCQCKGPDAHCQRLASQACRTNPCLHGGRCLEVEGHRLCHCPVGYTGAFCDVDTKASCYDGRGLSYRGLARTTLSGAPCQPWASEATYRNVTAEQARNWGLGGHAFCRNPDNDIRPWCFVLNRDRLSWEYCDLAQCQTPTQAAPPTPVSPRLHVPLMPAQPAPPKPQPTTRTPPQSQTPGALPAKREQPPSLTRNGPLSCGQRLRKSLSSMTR
pIC50: −log10 of the molar value.
Endpoint Label: pIC50

[in] State the recorded pIC50 for this entry: `CCNC(=O)c1nn(-c2cccc(Cl)c2)c2c1CCN(c1ccc3c(c1)C(=O)N(CC)CCO3)C2=O`
[out] 6.52 to 7.00

[in] Look up pIC50: `CN1CCc2ccc(N3CCc4c(C(=O)NC5(C)CC5)nn(-c5cccc(Cl)c5)c4C3=O)cc2C1=O`
[out] 6.00 to 6.52

[in] Return reported pIC50; argument: `CCNC(=O)c1nn(-c2cccc(OC)n2)c2c1CCN(c1ccc3c(c1)C(=O)N(C)CC3)C2=O`
[out] 4.40 to 5.00

[in] Query (compound): `CN1CCc2ccc(N3CCc4c(C(=O)NCC5COC5)nn(-c5cccc(Cl)c5)c4C3=O)cc2C1=O` ; field requested: pIC50
[out] 6.00 to 6.52

[in] Param item = `O=C(NCc1cncc(F)c1)c1nn(-c2cccc(Cl)c2)c2c1CCN(c1ccc3c(c1)CN(CCO)CC3)C2=O` ; retrieve measured pIC50.
[out] 7.00 to 8.00

[in] Which pIC50 is listed for `CCN1CCc2cc(F)c(N3CCc4c(C(=O)NCC5CC5)nn(-c5cccc(Cl)c5)c4C3=O)cc2C1` ?
[out] 7.00 to 8.00

[in] Entry O=C(NCC1CC1)c1nn(-c2cccc(Cl)c2)c2c1CCN(c1ccc3c(c1)C(=O)N(CC1CCCO1)CC3)C2=O (stereo not shown) has what pIC50?
[out] 6.00 to 6.52

====

biological target: Thrombin (Homo sapiens); test: Related protease inhibition: Thrombin, fluorogenic substrate; format: biochemical; details: fluorogenic substrate at Km, 25° C.; H1-H3 = % activity at 40 μM; read-out: IC50 (human thrombin) nM
Endpoint Label: activity at 40 µM

[in] Which activity at 40 µM value is on record for `CCNC(=O)c1nn(-c2cc(C)cs2)c2c1CCN(c1ccc3c(c1)C(=O)N(C)CC3)C2=O` ?
[out] 20 to 80%

[in] Data request, read-out activity at 40 µM, for `CCNC(=O)c1nn(-c2cccc(Cl)c2)c2c1CCN(c1cccc(N3C(=O)C[C@H]4CCC[C@H]43)c1)C2=O`
[out] 20 to 80%

[in] What does the data say about its activity at 40 µM? Entry: `COCc1nn(-c2cccc(C#N)c2C)c2c1CCN(c1ccc3c(c1)C(=O)N(C)CC3)C2=O`
[out] > 80%

[in] What measured activity at 40 µM goes with CCNC(=O)c1nn(-c2cccc(Cl)c2)c2c1CCN(c1cc(N3C(=O)CC4CC43)ccc1F)C2=O (stereo not shown) ?
[out] > 80%

====

pIC50: −log10 of the molar value.
Endpoint Label: pIC50

[in] Param readout= pIC50; system= FXa (Homo sapiens, UniProt P00742); entry= Cc1cn(C)nc1CNC(=O)c1nn(-c2cccc(Cl)c2)c2c(=O)n(-c3ccc4c(c3)CN(C)CC4)c(C)nc12 [Example 3006] ; returns value.
[out] 5.52 to 6.00

[in] Notebook entry, FXa (Homo sapiens, UniProt P00742) assay: pIC50 of Cc1cccc(-n2nc(C(=O)NCc3cnccc3C)c3c2C(=O)N(c2ccc4c(c2)CN(CCO)CC4)CC3)c1 [Example 2008] = ?
[out] 5.00 to 5.52

[in] Return pIC50 measured with FXa (Homo sapiens, UniProt P00742) given this compound: CCNC(=O)c1nn(-c2cccc(Cl)c2)c2c1CCN(c1cccc(N3CCCC3=O)c1)C2=O [Example 1365]
Sequence (P00742 235-488 limits assumed): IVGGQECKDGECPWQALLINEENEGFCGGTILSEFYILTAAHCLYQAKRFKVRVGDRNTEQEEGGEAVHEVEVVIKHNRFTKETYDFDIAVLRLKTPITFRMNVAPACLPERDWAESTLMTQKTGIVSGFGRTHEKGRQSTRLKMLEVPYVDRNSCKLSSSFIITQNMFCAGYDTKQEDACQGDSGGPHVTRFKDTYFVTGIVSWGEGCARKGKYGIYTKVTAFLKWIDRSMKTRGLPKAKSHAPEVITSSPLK
Sequence (P00742 41-179 partner limits assumed): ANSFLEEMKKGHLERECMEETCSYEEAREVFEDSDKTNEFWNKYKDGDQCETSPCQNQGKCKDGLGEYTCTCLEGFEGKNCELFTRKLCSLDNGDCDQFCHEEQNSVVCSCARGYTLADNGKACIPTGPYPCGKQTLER
[out] < 4.40

[in] Item O=C(NCC1CC1)c1nn(-c2cccc(Cl)c2)c2c1CCN(c1ccc3c(c1)C(=O)N(CCF)CC3)C2=O [Example 1253] with FXa (Homo sapiens, UniProt P00742) - pIC50?
[out] < 4.40

[in] // lookup pIC50 | system=FXa (Homo sapiens, UniProt P00742) | key= CN1CCc2ccc(N3CCc4c(C(=O)NCCF)nn(-c5cccc(Cl)c5)c4C3=O)cc2C1=O [Example 1384]
[out] < 4.40

[in] // map CC(=O)N1CCc2ccc(N3CCc4c(C(=O)NCc5cnccc5C)nn(-c5cccc(Cl)c5)c4C3=O)cc21 [Example 1188] to recorded pIC50 (system: FXa (Homo sapiens, UniProt P00742))
[out] < 4.40

[in] Find pIC50 (FXa (Homo sapiens, UniProt P00742)) for the entry CCNC(=O)c1nn(-c2cccc(Cl)c2)c2c1CCN(c1cccc(CN3CCCCC3)c1)C2=O [Example 1011]
[out] < 4.00

[in] Request - read-out pIC50 | tested on FXa (Homo sapiens, UniProt P00742) | compound CN1CCc2ccc(N3CCc4c(C(=O)NCCC(=O)O)nn(-c5cccc(Cl)c5)c4C3=O)cc2C1=O [Example 1386]
[out] < 4.40

[in] What reported pIC50 corresponds to CN1CCc2ccc(N3CCc4c(C(=O)NCc5cccnn5)nn(-c5cccc(Cl)c5)c4C3=O)cc2C1=O [Example 1202] on FXa (Homo sapiens, UniProt P00742)?
[out] < 4.40

[in] Requested read-out pIC50, target or system FXa (Homo sapiens, UniProt P00742), entry Cc1nnc(CNC(=O)c2nn(-c3cccc(Cl)c3)c3c2CCN(c2ccc4c(c2)C(=O)N(C)CC4)C3=O)s1 [Example 1181]
[out] < 4.40

[in] # query: pIC50 | item CN1CCc2ccc(N3CCc4c(C(=O)NCC5CC5)nn(-c5cccc(Cl)c5)c4C3=O)cc2C1=O [Example 1149] | system: FXa (Homo sapiens, UniProt P00742)
[out] < 4.40

[in] Please state recorded pIC50 (tested on FXa (Homo sapiens, UniProt P00742)) of Cc1cc(CNC(=O)c2nn(-c3cccc(Cl)c3)c3c2CCN(c2ccc4c(c2)C(=O)N(CC(F)F)CCO4)C3=O)n[nH]1 [Example 1382]
[out] 5.00 to 5.52

[in] Provide the documented pIC50 with FXa (Homo sapiens, UniProt P00742) as the system for CCNC(=O)c1nn(-c2cccc(Cl)c2)c2c1CCN(c1ccc3c(c1)C(=O)N(CCO)[C@H](C)CO3)C2=O [Example 1392]
[out] < 4.40

[in] Test system FXa (Homo sapiens, UniProt P00742); read-out pIC50; what value for CN1CCc2ccc(N3CCc4c(C(=O)NCC5(CO)COC5)nn(-c5cccc(Cl)c5)c4C3=O)cc2C1=O [Example 1252] ?
[out] < 4.40

[in] Item: CN1CCc2ccc(N3CCc4c(C(=O)N[C@H](CO)c5ccccc5)nn(-c5cccc(Cl)c5)c4C3=O)cc2C1=O [Example 1307] Test system: FXa (Homo sapiens, UniProt P00742) Read-out: pIC50 Value: ?
[out] < 4.40

[in] For the record Cc1c[nH]nc1CNC(=O)c1nn(-c2cccc(Cl)c2)c2c1CCN(c1ccc3c(c1)C(=O)N(C)CC3)C2=O [Example 1248] , what value of pIC50 is listed for FXa (Homo sapiens, UniProt P00742)?
[out] 4.40 to 5.00

[in] Return pIC50 measured with FXa (Homo sapiens, UniProt P00742) given this compound: Cc1cn(C)nc1CNC(=O)c1nn(-c2cccc(Cl)c2)c2c1CCN(c1ccc3c(c1)CN(CCO)CC3)C2=O [Example 1157]
[out] 4.40 to 5.00

[in] Quick check: pIC50 on FXa (Homo sapiens, UniProt P00742), item Cc1nc(CNC(=O)c2nn(-c3cccc(Cl)c3)c3c2CCN(c2ccc4c(c2)C(=O)N(C)CC4)C3=O)n[nH]1 [Example 1247] ?
[out] < 4.40

[in] FXa (Homo sapiens, UniProt P00742) / pIC50 / CCOC(=O)c1nn(-c2cccc(Cl)c2)c2c(=O)n(-c3ccc4c(c3)C(=O)N(CCO)CC4)c(C)nc12 [Example 3019] : value?
[out] 5.00 to 5.52

[in] Param readout= pIC50; system= FXa (Homo sapiens, UniProt P00742); entry= CCNC(=O)c1nn(-c2cccc(Cl)c2)c2c1CCN(c1ccc3c(c1)C(=O)N(CCO)[C@@H](C)CO3)C2=O [Example 1381] ; returns value.
[out] < 4.40

[in] # get_value(readout= pIC50, system= FXa (Homo sapiens, UniProt P00742)) for CCNC(=O)c1nn(-c2cccc(Cl)c2)c2c(=O)n(-c3ccc4c(c3)C(=O)N(C)CC4)c(C)nc12 [Example 3022]
[out] 4.40 to 5.00

[in] Field: pIC50 (FXa (Homo sapiens, UniProt P00742)). Entry: CN1CCc2ccc(N3CCc4c(C(=O)NCC5CCOC5)nn(-c5cccc(Cl)c5)c4C3=O)cc2C1=O (stereo not shown) [Example 1198]
[out] < 4.40

[in] Item COCCN1CCc2ccc(N3CCc4c(C(=O)NCc5cc(C)n(C)n5)nn(-c5cccc(Cl)c5)c4C3=O)cc2C1=O [Example 1262] with FXa (Homo sapiens, UniProt P00742) - pIC50?
[out] 4.40 to 5.00

[in] Request body: readout pIC50, system FXa (Homo sapiens, UniProt P00742), query Cc1cc(CNC(=O)c2nn(-c3cccc(Cl)c3)c3c2CCN(c2ccc4c(c2)N(C)C(=O)CC4)C3=O)nn1C [Example 1208] . Return the value.
[out] 4.40 to 5.00

[in] Notebook: pull reported pIC50 for FXa (Homo sapiens, UniProt P00742), entry Cc1nc2c(C(=O)NCC3CC3)nn(-c3cccc(Cl)c3)c2c(=O)n1-c1ccc2c(c1)C(=O)N(CCO)CC2 [Example 3016]
[out] < 4.40

[in] Query pIC50 on FXa (Homo sapiens, UniProt P00742) for CCN1Cc2cc(N3CCc4c(C(=O)NCC5CC5)nn(-c5cccc(Cl)c5)c4C3=O)ccc2C2(CC2)C1 [Example 1099]
[out] 5.00 to 5.52

[in] API: value(readout=pIC50, system=FXa (Homo sapiens, UniProt P00742)) for record COc1ccnc(CNC(=O)c2nn(-c3cccc(Cl)c3)c3c2CCN(c2ccc4c(c2)CN(CCO)CC4)C3=O)c1 [Example 1230]
[out] 4.40 to 5.00

[in] Lab note: need pIC50 with FXa (Homo sapiens, UniProt P00742) for entry Cc1ccncc1CNC(=O)c1nn(-c2cccc(Cl)c2)c2c(=O)n(-c3ccc4c(c3)CN(CCO)CC4)c(C)nc12 [Example 3011] , please look it up.
[out] 4.40 to 5.00

The measurements presented in this section are drawn from patent US20260132132A1.
